// provenance: patent US20190338035A1

molecular target: T1, WT H3.3 26-35 peptide/HLA-A*02:01 complex on T2 cells (human); test: flow cytometry, scFv phage on T2 cells, anti-M13 + PE anti-mouse IgG
T1 construct: whole, on cells; T2 cells pulsed with the synthetic peptide; also called T2-WT H3.3; T2-WT 3.3
For each of the binders below, state its Median MFI (PE-A).
One number for each entry, in MFI.

Phage clone 10 (scFv, fusion to the phage coat protein not described) scFv: EIVLTQSPLSLPVTLGQPASISCRSSQSLVYSNGNTYLSWFHQRPGQSPRRLIYKVSKRDSGVPDRFSGSGSGTDFTLKISRVEAEDVGVFYCMQGTYWPYTFGQGTKLEIKRSRGGGGSGGGGSGGGGSLEMAEVQLVQSGAEVKKPGESLKISCKGSGYSFTSYWIGWVRQMPGKGLEWMGIIYPGDSDTRYSPSFQGQVTISADKSISTAYLQWSSLKASDTAMYYCARGFDNWGQGTLVTVSS; 849

# context switch: different binder, same Median MFI (PE-A)
Prompt line: Specify measured Median MFI (PE-A) for Phage clone 31 (scFv, fusion to the phage coat protein not described) scFv: QAVLTQPSSLSASPGASASLTCTLRSGINVGTYRIYWYQQKPGSPPQYLLRYKSDSDKQQGSGVPSRFSGSKDASANAGILLISGLQSEDEADYYCMIWHSSAWVFGGGTKLTVLGSRGGGGSGGGGSGGGGSLEMAEVQLVESGGGLVQPGGSLRLSCAASGLTFDRYAMSWVRQAAGKGLERFSAITGDGYYTYYADSVKGRFTISRDNSKNTLYLQMNSLGAEDTAVYYCARLSGIGRSSYDGWGQGTLVTVSS .
Response line: 777
